- assay-remarks: NCI Yeast Anticancer Drug Screen. Data for the mgt1 strain (AID 153)
- condition-description: S. cerevisiae mgt1 mutant growth inhibition; at 3.7 µM; active compounds read high
- Description: Growth inhibition of yeast strains with defined genetic alterations is measured as a screen for potential anti-cancer activity. Selected strains with alterations in DNA damage repair or cell cycle control were exposed to compounds and growth inhibition was measured relative to vehicle treated controls. The strain used in this assay is mgt1
This is part of a sample that, as a whole, favours compounds with a hit. Of some 79,000 tested, about 15% had one in any assay.
parameter: growth inhibition (%)
# unit: % | format: bare number

See these solved cases before continuing.
> print(dat)
                                   molecule          parameter  recorded.result
1  O=C1OC(/C=C/c2ccccc2)Sc2ccccc21 (stereo unspecified)  growth inhibition                2
2  CCC(C)C(=O)OCC(=O)c1ccc(-c2ccccc2)cc1 (stereo unspecified)  growth inhibition               -1
3  Cc1nc2ccc(Br)cc2c(=O)n1-c1ccc(NC2OCC(O)C(O)C2O)cc1 (stereo unspecified)  growth inhibition                9
4  O=[N+]([O-])C(=C(NCc1ccccc1)NCc1ccccc1)C(Cl)=C(Cl)Cl  growth inhibition                3
5  CCCCCCCCCCCCCCCCOCC(Cl)COP(=O)(O)OP(=O)(O)OCC1OC(n2cnc3c(N)ncnc32)C(O)C1O (stereo unspecified)  growth inhibition               14

Pending molecule:
growth inhibition reported for this molecule Nc1ccc2cc(Br)c3ccccc3c2c1 : -3

Hey, just so you know, these numbers are from PubChem BioAssay (NCI).
